# credit: ChEMBL document CHEMBL5724806

experiment_summary: The drug is tested on the gut metagenome community of A-02 with ENA study accession number: PRJEB31790 for biotransformation under anaerobic condition. The drug concentrations were measured over 7 timepoints collected between 0 and 12 hours of incubation by liquid-chromatography-coupled mass spectrometry (LC–MS)
Format: ADME
Design: dose 5 uM, timepoint 0, 0.75, 1.5, 3, 6, 9, 12 hours
setup_conditions: 5 µM
quantity_kind: Bacterial Biotransformation

Would you please look over these solved cases?
{"compound": "NS(=O)(=O)c1cc(C(=O)O)c(NCc2ccco2)cc1Cl [FUROSEMIDE]", "measurement": "Compound NOT metabolized"}
{"compound": "C[C@@H](NCCCc1cccc(C(F)(F)F)c1)c1cccc2ccccc12", "measurement": "Compound NOT metabolized"}
{"compound": "C[C@@H]1C[C@H]2[C@@H]3CCC4=CC(=O)C=C[C@]4(C)[C@@]3(F)[C@@H](O)C[C@]2(C)[C@@]1(O)C(=O)CO [DEXAMETHASONE]", "measurement": "Compound metabolized"}
{"compound": "CO[C@H]1C[C@@H]2CC[C@@H](C)[C@@](O)(O2)C(=O)C(=O)N2CCCC[C@H]2C(=O)O[C@H]([C@H](C)C[C@@H]2CC[C@@H](O)[C@H](OC)C2)CC(=O)[C@H](C)/C=C(\\C)[C@@H](O)[C@@H](OC)C(=O)[C@H](C)C[C@H](C)/C=C/C=C/C=C/1C [SIROLIMUS]", "measurement": "Compound metabolized"}

Endpoint output: Bacterial Biotransformation of C[C@H]1C[C@H]2[C@@H]3CCC4=CC(=O)C=C[C@]4(C)[C@@]3(F)[C@@H](O)C[C@]2(C)[C@@]1(O)C(=O)CO [BETAMETHASONE] . Value?
Compound metabolized

Endpoint output: Bacterial Biotransformation of CCC(C)(C)C(=O)O[C@H]1C[C@@H](C)C=C2C=C[C@H](C)[C@H](CC[C@@H]3C[C@@H](O)CC(=O)O3)[C@H]21 [SIMVASTATIN] . Value?
Compound metabolized

* * *

experiment_summary: The drug is tested on the gut metagenome community of P-01 with ENA study accession number: PRJEB31790 for biotransformation under microaerobic condition. The drug concentrations were measured over 7 timepoints collected between 0 and 12 hours of incubation by liquid-chromatography-coupled mass spectrometry (LC–MS)
Type: ADME
Parameters: dose 5 uM, timepoint 0, 0.75, 1.5, 3, 6, 9, 12 hours
setup_conditions: 5 µM
quantity_kind: Bacterial Biotransformation

{"molecule": "CCOC(=O)C1=C(COCCN)NC(C)=C(C(=O)OC)C1c1ccccc1Cl (centres undefined) [AMLODIPINE]", "measurement": "Compound NOT metabolized"}
{"molecule": "COc1c(C)c2c(c(O)c1C/C=C(\\C)CCC(=O)O)C(=O)OC2 [MYCOPHENOLIC ACID]", "measurement": "Compound NOT metabolized"}
{"molecule": "CN(Cc1cnc2nc(N)nc(N)c2n1)c1ccc(C(=O)N[C@@H](CCC(=O)O)C(=O)O)cc1 [METHOTREXATE]", "measurement": "Compound NOT metabolized"}

* * *

experiment_summary: The drug is tested on Capnocytophaga ochracea strain: DSM7271 for biotransformation under microaerobic condition. The drug concentrations were measured over 6 timepoints collected between 0 and 12 hours of incubation by liquid-chromatography-coupled mass spectrometry (LC–MS)
Assay type: ADME
Parameters: dose 5 uM, timepoint 0, 1.5, 3, 6, 9, 12 hours
setup_conditions: 5 µM
quantity_kind: Bacterial Biotransformation

Would you please look over these solved cases?
{"compound": "NS(=O)(=O)c1cc(C(=O)O)c(NCc2ccco2)cc1Cl [FUROSEMIDE]", "Bacterial Biotransformation": "Compound NOT metabolized"}
{"compound": "C[C@]12CCC(=O)C=C1CC[C@@H]1[C@@H]2C(=O)C[C@@]2(C)[C@H]1CC[C@]2(O)C(=O)CO", "Bacterial Biotransformation": "Compound NOT metabolized"}
{"compound": "COc1c(C)c2c(c(O)c1C/C=C(\\C)CCC(=O)O)C(=O)OC2", "Bacterial Biotransformation": "Compound NOT metabolized"}
{"compound": "C[C@@H]1C[C@H]2[C@@H]3CCC4=CC(=O)C=C[C@]4(C)[C@@]3(F)[C@@H](O)C[C@]2(C)[C@@]1(O)C(=O)CO", "Bacterial Biotransformation": "Compound NOT metabolized"}
{"compound": "C[C@]12C=CC(=O)C=C1CC[C@@H]1[C@@H]2[C@@H](O)C[C@@]2(C)[C@H]1CC[C@]2(O)C(=O)CO", "Bacterial Biotransformation": "Compound NOT metabolized"}

Endpoint output: Bacterial Biotransformation of C[C@H]1C[C@@H]2[C@H]([C@@H](O)C[C@@]3(C)[C@H]2CC[C@]3(O)C(=O)CO)[C@@]2(C)C=CC(=O)C=C12 . Value?
Compound NOT metabolized

Endpoint output: Bacterial Biotransformation of C[C@@H](NCCCc1cccc(C(F)(F)F)c1)c1cccc2ccccc12 . Value?
Compound NOT metabolized

Endpoint output: Bacterial Biotransformation of Cn1cnc([N+](=O)[O-])c1Sc1ncnc2nc[nH]c12 . Value?
Compound metabolized

* * *

experiment_summary: The drug is tested on Actinomyces graevenitzii strain: DSM15540 for biotransformation under microaerobic condition. The drug concentrations were measured over 6 timepoints collected between 0 and 12 hours of incubation by liquid-chromatography-coupled mass spectrometry (LC–MS)
Format: ADME
Design: dose 5 uM, timepoint 0, 1.5, 3, 6, 9, 12 hours
setup_conditions: 5 µM
quantity_kind: Bacterial Biotransformation

{"molecule": "C[C@]12C=CC(=O)C=C1CC[C@@H]1[C@@H]2C(=O)C[C@@]2(C)[C@H]1CC[C@]2(O)C(=O)CO", "Bacterial Biotransformation": "Compound NOT metabolized"}
{"molecule": "COc1ccc([C@@H]2Sc3ccccc3N(CCN(C)C)C(=O)[C@@H]2OC(C)=O)cc1", "Bacterial Biotransformation": "Compound NOT metabolized"}
{"molecule": "C[C@@H]1C[C@H]2[C@@H]3CCC4=CC(=O)C=C[C@]4(C)[C@@]3(F)[C@@H](O)C[C@]2(C)[C@@]1(O)C(=O)CO", "Bacterial Biotransformation": "Compound NOT metabolized"}
{"molecule": "COc1c(C)c2c(c(O)c1C/C=C(\\C)CCC(=O)O)C(=O)OC2", "Bacterial Biotransformation": "Compound NOT metabolized"}
{"molecule": "CNC(=C[N+](=O)[O-])NCCSCc1ccc(CN(C)C)o1", "Bacterial Biotransformation": "Compound NOT metabolized"}

Endpoint output: Bacterial Biotransformation of Cn1cnc([N+](=O)[O-])c1Sc1ncnc2nc[nH]c12 . Value?
Compound metabolized

Endpoint output: Bacterial Biotransformation of COc1c(C)c2c(c(O)c1C/C=C(\C)CCC(=O)OCCN1CCOCC1)C(=O)OC2 [MYCOPHENOLATE MOFETIL] . Value?
Compound metabolized

Endpoint output: Bacterial Biotransformation of NS(=O)(=O)c1cc(C(=O)O)c(NCc2ccco2)cc1Cl [FUROSEMIDE] . Value?
Compound NOT metabolized

* * *

experiment_summary: The drug is tested on Escherichia coli strain: DSM27469 for biotransformation under microaerobic condition. The drug concentrations were measured over 6 timepoints collected between 0 and 12 hours of incubation by liquid-chromatography-coupled mass spectrometry (LC–MS)
Format: ADME
Parameters: dose 5 uM, timepoint 0, 1.5, 3, 6, 9, 12 hours
setup_conditions: 5 µM
quantity_kind: Bacterial Biotransformation

Would you please look over these solved cases?
{"compound": "CO[C@H]1C[C@@H]2CC[C@@H](C)[C@@](O)(O2)C(=O)C(=O)N2CCCC[C@H]2C(=O)O[C@H]([C@H](C)C[C@@H]2CC[C@@H](O)[C@H](OC)C2)CC(=O)[C@H](C)/C=C(\\C)[C@@H](O)[C@@H](OC)C(=O)[C@H](C)C[C@H](C)/C=C/C=C/C=C/1C [SIROLIMUS]", "measurement": "Compound NOT metabolized"}
{"compound": "CCOc1nc2cccc(C(=O)O)c2n1Cc1ccc(-c2ccccc2-c2nnn[nH]2)cc1", "measurement": "Compound NOT metabolized"}
{"compound": "COc1c(C)c2c(c(O)c1C/C=C(\\C)CCC(=O)OCCN1CCOCC1)C(=O)OC2 [MYCOPHENOLATE MOFETIL]", "measurement": "Compound metabolized"}
{"compound": "COc1c(C)c2c(c(O)c1C/C=C(\\C)CCC(=O)O)C(=O)OC2 [MYCOPHENOLIC ACID]", "measurement": "Compound NOT metabolized"}
{"compound": "CCOC(=O)C1=C(COCCN)NC(C)=C(C(=O)OC)C1c1ccccc1Cl (configuration not stated) [AMLODIPINE]", "measurement": "Compound NOT metabolized"}
{"compound": "CN(Cc1cnc2nc(N)nc(N)c2n1)c1ccc(C(=O)N[C@@H](CCC(=O)O)C(=O)O)cc1 [METHOTREXATE]", "measurement": "Compound NOT metabolized"}

Next, consider the following compound.
Endpoint output: Bacterial Biotransformation of COc1ccc([C@@H]2Sc3ccccc3N(CCN(C)C)C(=O)[C@@H]2OC(C)=O)cc1 [DILTIAZEM] . Value?
Compound metabolized
